systemUnderTest: full-length CDK9 (amino acids 1-372; Accession Number NP_001252.1) (Homo sapiens, UniProt P50750)
Construct: full-length CDK9 (amino acids 1-372)
Sequence (P50750 whole entry, the tested form may be a part): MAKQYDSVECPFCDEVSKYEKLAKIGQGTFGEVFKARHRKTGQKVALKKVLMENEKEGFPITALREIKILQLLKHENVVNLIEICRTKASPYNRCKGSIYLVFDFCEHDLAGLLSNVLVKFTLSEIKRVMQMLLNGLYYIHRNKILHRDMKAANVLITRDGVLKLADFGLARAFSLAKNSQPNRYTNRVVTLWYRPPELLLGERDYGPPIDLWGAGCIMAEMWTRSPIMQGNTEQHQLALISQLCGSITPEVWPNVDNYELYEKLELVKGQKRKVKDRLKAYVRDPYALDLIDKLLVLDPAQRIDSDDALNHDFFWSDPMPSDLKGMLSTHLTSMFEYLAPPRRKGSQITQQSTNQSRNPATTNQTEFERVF
testMethodNotes: KdELECT binding assay, CDK9
pKd: −log10 of the molar value.
measuredMetric: pKd

CCc1cnn2c(NCc3ccc(OCCOCCOCCOC4CCN(C/C=C/C(=O)N5CCN(c6nc(OC[C@@H]7CCCN7C)nc7c6CCN(c6cccc8cccc(Cl)c68)C7)C[C@@H]5CC#N)CC4)nc3)cc(N3CCCC[C@H]3CCO)nc12 [Compound I-90] :: > 7.30
CCc1cnn2c(NCc3ccc(OCCOCCOCCOCCOCCN(C)C/C=C/C(=O)N4CCN(c5nc(OC[C@@H]6CCCN6C)nc6c5CCN(c5cccc7cccc(Cl)c57)C6)C[C@@H]4CC#N)nc3)cc(N3CCCC[C@H]3CCO)nc12 [Compound I-92] :: < 5.60
CCc1cnn2c(NCc3ccc(OCCOCCOCCOCCOCCOC/C=C/C(=O)N4CCN(c5nc(OC[C@@H]6CCCN6C)nc6c5CCN(c5cccc7cccc(Cl)c57)C6)C[C@@H]4CC#N)nc3)cc(N3CCCCC3CCO)nc12 (stereo partly shown) [Compound I-86] :: > 7.30
C=CC(=O)Nc1cc(Nc2nccc(-c3cn(C)c4ccccc34)n2)c(OC)cc1N(C)CCN(C)CCOCCOCCOCCOCCOc1ccc(CNc2cc(N3CCCC[C@H]3CCO)nc3c(CC)cnn23)cn1 [Compound I-132] :: > 7.30
C=CC(=O)Nc1cc(Nc2nccc(-c3cn(C)c4ccccc34)n2)c(OC)cc1N(C)CCN(C)CCOCCOCCNS(=O)(=O)c1ccc(Nc2ncc(Br)c(Nc3cccc(F)c3C(N)=O)n2)cc1 [Compound I-33] :: 5.60 to 6.30
C=CC(=O)N[C@@H]1CN(c2nc(Nc3cn(CCOCCOCCOCCOCCNS(=O)(=O)c4ccc(Nc5ncc(Br)c(Nc6cccc(F)c6C(N)=O)n5)cc4)nc3OC)c3ncn(C)c3n2)C[C@H]1F [Compound I-138] :: 5.60 to 6.30
C=CC(=O)N[C@@H]1CN(c2nc(Nc3cn(CCOCCOCCOCCOCCOCCOCCNS(=O)(=O)c4ccc(Nc5ncc(Br)c(Nc6cccc(F)c6C(N)=O)n5)cc4)nc3OC)c3ncn(C)c3n2)C[C@H]1F [Compound I-143] :: 5.60 to 6.30

###

Test system: HEK293 cells
testMethodNotes: Cellular growth inhibition assay (CellTiter-Glo), HEK293 cells
Format: cell-based
conditionParameters: three days compound treatment, CellTiter-Glo 2.0, read-out: CTG HEK293 GI50
measuredMetric: GI50

C=CC(=O)N[C@@H]1CN(c2nc(Nc3cn(CCOCCOCCNS(=O)(=O)c4ccc(Nc5ncc(Br)c(Nc6cccc(F)c6C(N)=O)n5)cc4)nc3OC)c3ncn(C)c3n2)C[C@H]1F :: > 5000 nM
Cc1c(CC(=O)N(C)C)ccc(NC(=O)c2nn([C@@H]3CCCN(C(=O)/C=C/CN(C)CCOCCOCC(=O)NCCCCn4nc(-c5ccc6oc(N)nc6c5)c5c(N)ncnc54)C3)c3ncnc(N)c23)c1C :: 1500 to 5000 nM
C=CC(=O)N[C@@H]1CN(c2nc(Nc3cn(CCOCCOCCOCCOCCOCCOCCOc4ccc(CNc5cc(N6CCCC[C@@H]6CCO)nc6c(CC)cnn56)cn4)nc3OC)c3ncn(C)c3n2)C[C@H]1F :: < 500 nM
C=C(F)C(=O)N1CCN(c2nc(OC[C@@H]3CCCN3CCCOCCOCCOCCOCCOCCOCCOCCOCCN(C)C(=O)N3N=C(c4cc(F)ccc4F)S[C@@]3(CCCN)c3ccccc3)nc3c2CCN(c2cccc4cccc(Cl)c24)C3)C[C@@H]1CC#N :: 1500 to 5000 nM
C=CC(=O)N[C@@H]1CN(c2nc(Nc3cn(CCOCCOCCOc4ccc(CNc5cc(N6CCCC[C@H]6CCO)nc6c(CC)cnn56)cn4)nc3OC)c3ncn(C)c3n2)C[C@H]1F :: < 500 nM
